assay: solubility of branaplam in selected excipients; format: physicochemical; settings: aqueous excipient stock solution, 2 °C, pH 4, aqueous with cosolvent or surfactant or cyclodextrin, thermodynamic from solid, in Cremophor RH 40 15.0% (w/w), 2-8° C.; read-out: Solubility (mg/mL) 2-8° C.
assay_endpoint: solubility at 24 h (mg/mL)
One number for each entry, in mg/mL.

**Q:** What does the data say about its solubility at 24 h? Entry: CC1(C)CC(Oc2ccc(-c3ccc(-c4cn[nH]c4)cc3O)nn2)CC(C)(C)N1
**A:** 1.19

====

assay: solubility of branaplam in selected excipients; type: physicochemical; conditions: aqueous excipient solution, 2 °C, pH 4, aqueous with cosolvent or surfactant or cyclodextrin, thermodynamic from solid, in Tween 80 1.5% (w/w), 2-8° C.; read-out: Solubility (mg/mL) 2-8° C.
assay_endpoint: solubility at 24 h (mg/mL)
Give bare numbers, in mg/mL.

**Q:** What does the data say about its solubility at 24 h? Entry: CC1(C)CC(Oc2ccc(-c3ccc(-c4cn[nH]c4)cc3O)nn2)CC(C)(C)N1
**A:** 0.29
